Listed next: entries and their corresponding % Phosphatase Activity (compared to DMSO) PRL-1.
# Measured Target: recombinant PRL-1 (Homo sapiens, UniProt Q93096)
# Construct: 6xHis (N, cleaved yes); made in house; host or cells: E. coli One Shot BL21 Star
# Sequence (Q93096 whole entry): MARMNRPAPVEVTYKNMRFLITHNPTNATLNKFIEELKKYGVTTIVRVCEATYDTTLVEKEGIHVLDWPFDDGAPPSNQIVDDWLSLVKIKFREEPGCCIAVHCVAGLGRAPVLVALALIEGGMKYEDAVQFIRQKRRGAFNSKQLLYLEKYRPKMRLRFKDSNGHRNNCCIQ
# Experimental Protocol: In vitro phosphatase assay (DiFMUP hydrolysis), PRL-1; further: test concentration or dose not given here
# Format: biochemical
# Run Parameters: FDA-approved drug screen; compared to DMSO
The reply should contain only the number, in %.

INSERT INTO results (compound, measured_target, observed_result) VALUES
  ('CCN(CC)C(=O)C1(c2ccccc2)CC1CN.Cl (stereo not shown) [Milnacipran HCl]', 'recombinant PRL-1 (Homo sapiens, UniProt Q93096)', 114),
  ('C=C[C@]1(C)C[C@@H](OC(=O)CS[C@@H]2C[C@H]3CC[C@@H](C2)N3C)[C@]2(C)[C@H](C)CC[C@]3(CCC(=O)[C@H]32)[C@@H](C)[C@@H]1O [Retapamulin]', 'recombinant PRL-1 (Homo sapiens, UniProt Q93096)', 85),
  ('CN1CC[C@H](c2c(O)cc(O)c3c(=O)cc(-c4ccccc4Cl)oc23)[C@H](O)C1 [Flavopiridol (Alvocidib)]', 'recombinant PRL-1 (Homo sapiens, UniProt Q93096)', 92);

Next up:
For the compound C[N+](C)(C)CCOC(N)=O [Carbachol] , give its reported % Phosphatase Activity (compared to DMSO) PRL-1.
91

---

# Measured Target: recombinant PRL-2 (Homo sapiens, UniProt Q12974)
# Construct: 6xHis (N, cleaved yes); made in house; host or cells: E. coli One Shot BL21 Star
# Sequence (Q12974 1-167): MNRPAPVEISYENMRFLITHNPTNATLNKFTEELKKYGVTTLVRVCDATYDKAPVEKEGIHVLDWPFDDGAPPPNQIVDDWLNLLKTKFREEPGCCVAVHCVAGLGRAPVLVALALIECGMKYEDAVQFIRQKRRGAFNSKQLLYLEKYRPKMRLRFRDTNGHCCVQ
# Experimental Protocol: In vitro phosphatase assay (DiFMUP hydrolysis), PRL-2;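 further: PRL-2 activity read as DiFMUP hydrolysis after 20 min at room temperature with drug, enzyme first pre-reduced at 4 °C for 20 min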
# Type: biochemical
# Run Parameters: FDA-approved drug screen; compared to DMSO
Counter-ions that a name gives are not always drawn.
Readout Type: % Phosphatase Activity (compared to DMSO) PRL-2 (%)
The reply should contain only the number, in %.

Please review the entries below; each comes with its answer.
INSERT INTO assay_data (molecule, observed_result) VALUES
  ('CC(C)c1nc(N(C)S(C)(=O)=O)nc(-c2ccc(F)cc2)c1/C=C/[C@@H](O)C[C@@H](O)CC(=O)O [Rosuvastatin Calcium]', 99),
  ('CC1=C(C(=O)O)N2C(=O)[C@@H](NC(=O)[C@H](N)C3=CCC=CC3)[C@H]2SC1 [Cefradine]', 76),
  ('CCCCC1C(=O)N(c2ccccc2)N(c2ccccc2)C1=O [Phenylbutazone]', 84),
  ('NC(=O)C1CCCc2c1[nH]c1ccc(Cl)cc21 (stereo not drawn) [EX 527 (Selisistat)]', 106),
  ('Br.COc1ccc2c(c1)[C@]13CCCC[C@@H]1[C@H](C2)N(C)CC3.O [Dextromethorphan (hydrobromide hydrate)]', 118),
  ('CC(=O)NC(CCC(N)=O)C(=O)O (stereo not drawn) [Aceglutamide]', 96),
  ('CCC1(c2ccc(N)cc2)CCC(=O)NC1=O (stereo not drawn) [Aminoglutethimide]', 107),
  ('Cc1cccc(Cc2c[nH]cn2)c1C [Detomidine HCl]', 107);

Next up:
For the molecule CC(C)C(=O)Nc1ccc([N+](=O)[O-])c(C(F)(F)F)c1 [Flutamide] , give its reported % Phosphatase Activity (compared to DMSO) PRL-2.
76
